EXPERIMENTAL TARGET: hM5 (Homo sapiens, UniProt P08912)
Construct: expressed in transfected cells
Sequence (P08912 1-532): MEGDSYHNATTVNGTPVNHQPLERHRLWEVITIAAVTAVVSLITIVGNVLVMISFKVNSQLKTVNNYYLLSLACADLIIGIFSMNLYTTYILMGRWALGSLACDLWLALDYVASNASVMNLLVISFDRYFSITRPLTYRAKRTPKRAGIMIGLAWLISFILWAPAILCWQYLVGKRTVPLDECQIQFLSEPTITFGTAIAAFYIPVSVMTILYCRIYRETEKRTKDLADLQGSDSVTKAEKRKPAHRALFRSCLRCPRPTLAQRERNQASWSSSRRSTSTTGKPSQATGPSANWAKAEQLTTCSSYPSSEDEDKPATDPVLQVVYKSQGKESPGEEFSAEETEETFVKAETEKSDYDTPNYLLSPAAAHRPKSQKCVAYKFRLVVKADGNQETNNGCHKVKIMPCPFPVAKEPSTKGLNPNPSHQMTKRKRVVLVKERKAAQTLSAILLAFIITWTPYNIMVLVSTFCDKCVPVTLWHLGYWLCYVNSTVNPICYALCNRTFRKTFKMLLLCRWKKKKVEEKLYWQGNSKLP
PROCEDURE TEXT: Calcium mobilization concentration-response (IC50 vs EC80 acetylcholine), CHO hM5
Format: cell-based
REPORTED CONDITIONS: CELL LINE hM5; calcium mobilization, EC80 acetylcholine addition; read-out: IC50
Measured log10 IC50 by item
OUTCOME MEASURE: log10 IC50 (log10 of the value in nM)

{"columns": ["MOLECULE", "log10 IC50"],
 "data": [
  ["Cc1ncc(S(=O)(=O)N2CCC(c3ccc4c(c3)OCO4)CC2)n1C", 3.14],
  ["Cn1ncc(S(=O)(=O)N2CCC(c3ccc4c(c3)OCO4)CC2)c1Cl", 2.58],
  ["Cc1c(C2CCN(S(=O)(=O)c3cnc(C)n3C)CC2)cn2ncnc2c1F", 1.63],
  ["Cc1cc2nccn2nc1C1CCN(S(=O)(=O)c2ccc3ncsc3c2)CC1", 3.62],
  ["Cc1cc2ncnn2cc1C1CCN(S(=O)(=O)c2cc3c(cc2F)OCC3)CC1", 2.64],
  ["Cc1sc(C#N)nc1C1CCN(S(=O)(=O)c2ccc3c(c2)CCO3)CC1", 3.15],
  ["CCc1cc2ncnn2cc1C1=CCN(S(=O)(=O)c2cnn(C)c2C)CC1", 1.74],
  ["Cc1cc2ncnn2cc1C1=CCN(S(=O)(=O)c2ccc3c(c2)CCO3)CC1", 2.71],
  ["Cc1cc2ncnn2cc1C1CCN(S(=O)(=O)c2c(C(F)(F)F)nn(C)c2C)CC1", 1.91],
  ["O=S(=O)(c1ccc2ncsc2c1)N1CCC(c2cn3ncnc3cc2C(F)(F)F)CC1", 3.26],
  ["Cc1cc(S(=O)(=O)N2CCC(c3cn4ncnc4cc3C(F)(F)F)CC2)c(C)s1", 3.28],
  ["Cc1nn(C)c(C(F)(F)F)c1S(=O)(=O)N1CCC(c2cn3ncnc3cc2F)CC1", 3.32]
]}

====

EXPERIMENTAL TARGET: hM5 (Homo sapiens, UniProt P08912)
Construct: expressed in transfected cells
PROCEDURE TEXT: Calcium mobilization concentration-response (IC50 vs EC80 acetylcholine), CHO hM5
Type: cell-based
REPORTED CONDITIONS: CELL LINE hM5; calcium mobilization, EC80 acetylcholine addition; read-out: IC50
Define the label as Criterion met when IC50 is strictly less than 2 µM and as Criterion not met in all remaining cases.

{"columns": ["MOLECULE", "GROUP LABEL"],
 "data": [
  ["Cc1sc(C(N)=O)nc1C1CCN(S(=O)(=O)c2cnn(C)c2C)CC1", "Criterion not met"],
  ["CCc1cc2ncnn2cc1C1CCN(S(=O)(=O)c2cnn3c2CCCC3)CC1", "Criterion met"],
  ["O=S(=O)(c1ccc2c(c1)CCO2)N1CCC(c2ncc3cc[nH]c3n2)CC1", "Criterion not met"],
  ["Cc1nc2[nH]ccc2nc1C1CCN(S(=O)(=O)c2ccc3c(c2)CCO3)CC1", "Criterion not met"],
  ["Cc1ncc(S(=O)(=O)N2CCC(c3cn4ncnc4cc3F)CC2)n1C", "Criterion met"],
  ["Cc1c(S(=O)(=O)N2CCC(c3cn4ncnc4cc3OC(F)(F)F)CC2)cnn1C", "Criterion not met"],
  ["Cn1cnc2cc(C3CCN(S(=O)(=O)c4ccc5c(c4)CCO5)CC3)ccc21", "Criterion not met"],
  ["O=S(=O)(c1ccc2c(c1)CCO2)N1CCC(c2cn3ccccc3n2)CC1", "Criterion not met"]
]}
